Source: ChEMBL document CHEMBL1138317

# assay info: Half life in dog at 20 mg/kg, po
# Type: ADME, organism-based, Canis lupus familiaris
# Parameters: dose 20 mg/kg, route oral
# measurement setup: in vivo

[
  {
    "smiles": "NC(=O)[C@H]1CN(c2ccc([C@H]3CC[S@+]([O-])CC3)c(F)c2)C(=O)O1",
    "half-life [h]": 6.2
  }
]

---

# assay info: AUC (0 to 24 hrs) in Sprague-Dawley rat plasma at 600 mg/kg/day, po after 14 days
# Assay type: ADME, organism-based
# Parameters: dose 600 mg/kg/day, time < 24 hr, route oral

[
  {
    "smiles": "NC(=O)[C@H]1CN(c2ccc([C@H]3CC[S@+]([O-])CC3)c(F)c2)C(=O)O1",
    "AUC at 24 h [µg·h/mL]": 619
  }
]

---

# assay info: Half life in mouse at 20 mg/kg, po
# Assay type: ADME, organism-based
# Design: dose 20 mg/kg, route oral
# measurement setup: in vivo
quantity kind: half-life (h)

[
  {
    "smiles": "NC(=O)[C@H]1CN(c2ccc([C@H]3CC[S@+]([O-])CC3)c(F)c2)C(=O)O1",
    "quantity kind": "half-life",
    "measure unit": "h",
    "observed result": 1.5
  }
]

---

# assayed target: Amine oxidase [flavin-containing] A (Homo sapiens, UniProt P21397)
# Sequence (P21397 whole entry): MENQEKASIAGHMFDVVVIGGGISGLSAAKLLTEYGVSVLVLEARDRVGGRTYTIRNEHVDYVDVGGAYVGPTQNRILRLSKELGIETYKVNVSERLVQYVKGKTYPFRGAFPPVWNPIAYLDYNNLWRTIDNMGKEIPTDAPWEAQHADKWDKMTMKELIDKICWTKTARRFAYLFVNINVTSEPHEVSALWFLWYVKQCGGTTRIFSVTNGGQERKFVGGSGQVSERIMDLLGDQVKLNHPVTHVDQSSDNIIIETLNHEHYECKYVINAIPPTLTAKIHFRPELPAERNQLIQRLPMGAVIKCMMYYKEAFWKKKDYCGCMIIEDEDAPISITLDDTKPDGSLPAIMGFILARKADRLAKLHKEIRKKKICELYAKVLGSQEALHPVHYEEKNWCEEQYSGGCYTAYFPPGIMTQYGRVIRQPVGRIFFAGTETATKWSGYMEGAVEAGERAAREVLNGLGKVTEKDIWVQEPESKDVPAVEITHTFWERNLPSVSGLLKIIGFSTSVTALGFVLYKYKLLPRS
# assay info: Inhibition of human recombinant MAOA
pIC50: −log10 of the molar value.
pIC50: recorded values
quantity kind: pIC50

[
  {
    "smiles": "NC(=O)[C@H]1CN(c2ccc(C3CCS(=O)(=O)CC3)c(F)c2)C(=O)O1",
    "observed result": 3.98
  },
  {
    "smiles": "NC(=O)[C@H]1CN(c2cc(F)c(N3CCOCC3)c(F)c2)C(=O)O1",
    "observed result": 4.20
  },
  {
    "smiles": "NC(=O)[C@H]1CN(c2cc(F)c(C3CCS(=O)(=O)CC3)c(F)c2)C(=O)O1",
    "observed result": 3.53
  },
  {
    "smiles": "NC(=O)[C@H]1CN(c2ccc(N3CCOCC3)c(F)c2)C(=O)O1",
    "observed result": 3.84
  },
  {
    "smiles": "NC(=O)[C@H]1CN(c2ccc([C@H]3CC[S@+]([O-])CC3)c(F)c2)C(=O)O1",
    "observed result": 3.26
  }
]

---

# assay info: Volume of distribution at steady state in mouse at 4 mg/kg, iv
# Format: ADME, organism-based
# Set-up: dose 4 mg/kg, route intravenous
# measurement setup: in vivo, read-out: Vdss

[
  {
    "smiles": "NC(=O)[C@H]1CN(c2ccc([C@H]3CC[S@+]([O-])CC3)c(F)c2)C(=O)O1",
    "Vd (L/kg)": 3.3
  }
]

---

# assayed target: Cytochrome P450 1A2 (Homo sapiens, UniProt P05177)
# Sequence (P05177 whole entry): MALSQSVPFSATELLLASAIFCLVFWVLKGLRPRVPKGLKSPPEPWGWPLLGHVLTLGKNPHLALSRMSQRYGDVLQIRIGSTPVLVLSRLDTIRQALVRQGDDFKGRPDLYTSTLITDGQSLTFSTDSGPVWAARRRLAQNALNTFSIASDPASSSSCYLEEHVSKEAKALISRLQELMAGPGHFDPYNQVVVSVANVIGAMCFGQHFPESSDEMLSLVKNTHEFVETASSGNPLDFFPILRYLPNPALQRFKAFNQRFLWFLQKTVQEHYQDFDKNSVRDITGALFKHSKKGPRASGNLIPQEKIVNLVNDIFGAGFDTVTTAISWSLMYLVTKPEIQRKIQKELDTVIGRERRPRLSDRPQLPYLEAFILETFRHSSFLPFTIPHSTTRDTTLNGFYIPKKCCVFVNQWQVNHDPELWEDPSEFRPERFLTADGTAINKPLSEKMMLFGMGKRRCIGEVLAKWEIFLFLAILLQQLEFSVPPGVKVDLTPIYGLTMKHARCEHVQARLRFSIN
pIC50: −log10 of the molar value.

[
  {
    "smiles": "NC(=O)[C@H]1CN(c2ccc([C@H]3CC[S@+]([O-])CC3)c(F)c2)C(=O)O1",
    "pIC50": "< 3.05"
  }
]
